Tested on: PHKG2
DETAILS: concentration: 1 μM, replicates: in singlicate; n = 1;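 also: KINOMEscan kinase panel screen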
Attribute: %Inh

# COMPOUND, VALUE REPORTED
measured = [
    ("Fc1ccc(-c2nn3c(OCC(F)(F)F)cccc3c2-c2ccncc2)cc1 [GW514784]", "0%"),
    ("O=C(c1ccc(-c2cc(-c3c[nH]nc3-c3ccccn3)ccn2)cc1)N1CCOCC1 [GW812171]", "0%"),
    ("Fc1ccc(-c2ncn(CCCN3CCOCC3)c2-c2ccccn2)cc1 [SB-211742]", "0%"),
    ("Nc1nc(-c2ccc3c(N)n[nH]c3c2)cc(N2CCCC2)n1 [GSK2227430]", "0%"),
]

Could you now consider this next compound?
Look up %Inh for this compound: NS(=O)(=O)c1cccc(-c2ccc3ncc(N4CCOCC4)nc3c2)c1 [GSK1535721]
41%

---

Tested on: CDK2
DETAILS: concentration: 1 μM, replicates: in singlicate; n = 1
Attribute: %Inh
Give a bare numeral; the unit % is implied.

Some solved cases for reference:
# MOLECULE, %Inh (%)
measured = [
    ("NS(=O)(=O)c1cccc(-c2ccc3ncc(N4CCOCC4)nc3c2)c1", 0),
    ("COc1cc2ncn(-c3cc(OCc4sccc4Cl)c(C(N)=O)s3)c2cc1OC", 0),
    ("C[C@@H](Oc1cc(-n2cnc3ccc(NC(=O)NC(C)(C)C)cc32)sc1C(N)=O)c1ccccc1Cl", 0),
    ("O=C(Nc1cccc(-c2nn3ncccc3c2-c2ccnc(Nc3cccc(C(F)(F)F)c3)n2)c1)c1c(F)cccc1F", 0),
    ("N#Cc1ccc(-c2cc(-c3c[nH]nc3-c3ccccn3)ccn2)cc1", 0),
    ("O=C(Nc1n[nH]c2cc(-c3cccc(F)c3)ccc12)C1CC1", 27),
]

Could you now consider this next molecule?
Record lookup: for CDK2, what %Inh belongs to O=C1Cc2cc(Nc3nc(NCc4cccc(S(=O)(=O)C(F)(F)F)c4)ncc3C(F)(F)F)ccc2N1 ?
0

---

Tested on: RSK4(Kin.Dom.1-N-terminal)
Construct: gene RPS6KA6
DETAILS: concentration: 1 μM, replicates: in singlicate; n = 1
RECORDED METRIC: %Inh (%)
Give a bare numeral; the unit % is implied.

Look up %Inh for this compound: NS(=O)(=O)c1cccc(-c2ccc3ncc(N4CCOCC4)nc3c2)c1
0

Look up %Inh for this compound: N#Cc1c(N2CCOCC2)sc(-c2ccn[nH]2)c1-c1ccc(Cl)cc1
2

Look up %Inh for this compound: CCn1cnc2c(N)ncnc21
0

Look up %Inh for this compound: Cc1nnc(-c2ccc3occ(-c4ccc(C(C)O)cc4)c3c2)o1 (stereo not drawn)
19

Look up %Inh for this compound: Cc1cccc(-c2nc(Nc3ccc4ncsc4c3)c3ccccc3n2)n1
6

Look up %Inh for this compound: COC(=O)Nc1nc2cc(Oc3ccc(NC(=O)Nc4cc(F)ccc4F)cc3)ccc2[nH]1.Cl
0

---

System: SGK3
DETAILS: concentration: 1 μM, replicates: in singlicate; n = 1
Doc: threshold 4% (exclusive). Items with %Inh beneath it return Met; others return Not met.

# COMPOUND, TARGET OR SYSTEM, CAT
rows = [
    ("Cn1cc(-c2ccc3c(c2)CCN3C(=O)Cc2ccccc2Cl)c2c(N)ncnc21 [GSK2608885]", "SGK3", "Met"),
]

Problem: For the compound O=c1cc(N2CCOCC2)nc2n(Cc3cccc(Cl)c3Cl)c(C3CC3)nn12 [GSK2358994] , is %Inh under 4%?
Met

---

Tested on: TEC
DETAILS: concentration: 1 μM, replicates: in singlicate; n = 1
RECORDED METRIC: %Inh (%)
Give a bare numeral; the unit % is implied.

Some solved cases for reference:
# COMPOUND, MEASUREMENT UNIT, %Inh
measured = [
    ("Cc1cccc(-c2nc(-c3ccc(S(C)(=O)=O)cc3)sc2-c2ccncc2)c1", "%", 26),
    ("O=c1cc(N2CCOCC2)nc2n(Cc3cccc(C(F)(F)F)c3)ccn12 [GSK2297543]", "%", 0),
    ("CCc1nc(-c2cccc(C)c2)c(-c2ccnc(NCc3ccccc3)c2)s1", "%", 9),
    ("c1ccc(-c2n[nH]cc2-c2ccnc3ccccc23)nc1 [GW271431]", "%", 0),
]

Look up %Inh for this compound: Cc1nnc(-c2ccc3occ(-c4ccc(C(C)O)cc4)c3c2)o1 (centres unmarked)
0

---

Attribute: %Inh
Test system: ALK
DETAILS: concentration: 1 μM, replicates: in singlicate; n = 1
Give a bare numeral; the unit % is implied.

# MOLECULE, RECORDED METRIC, VALUE REPORTED
data = [
    ("Cn1ccc2ncnc(Oc3ccc(NC(=O)Nc4ccncc4)c(Cl)c3)c21", "%Inh", 0),
]

Look up %Inh for this molecule: c1ccc(-c2n[nH]cc2-c2ccnc3ccccc23)nc1 [GW271431]
19

Look up %Inh for this molecule: O=C(NOCC1CC1)c1ccc(F)c(F)c1Nc1ccc(I)cc1Cl
0

Look up %Inh for this molecule: CCCCCc1nc2c(N)ncnc2n1CCCCC [SKF-97255]
0

---

System: LOK
Construct: gene STK10
DETAILS: concentration: 1 μM, replicates: in singlicate; n = 1
Attribute: %Inh
Give a bare numeral; the unit % is implied.

Some solved cases for reference:
# COMPOUND, TARGET OR SYSTEM, RECORDED METRIC, VALUE REPORTED
data = [
    ("O=C1Cc2cc(Nc3nc(NCc4cccc(S(=O)(=O)C(F)(F)F)c4)ncc3C(F)(F)F)ccc2N1", "LOK", "%Inh", 1),
    ("c1ccc(-c2n[nH]cc2-c2ccnc3ccccc23)nc1 [GW271431]", "LOK", "%Inh", 0),
    ("O=C(NCCNc1ccnc(Nc2ccc(F)cc2)n1)Nc1ccccc1F [GSK1379880]", "LOK", "%Inh", 0),
]

Could you now consider this next compound?
Record lookup: for LOK, what %Inh belongs to COc1ccc(S(=O)(=O)NC2CCN(c3cc(C)nc(Nc4cccc(C#N)c4)n3)CC2)cc1.O=C(O)C(F)(F)F [GSK1653539] ?
0

---

Tested on: TSSK1B
DETAILS: concentration: 1 μM, replicates: in singlicate; n = 1
RECORDED METRIC: %Inh (%)
Give a bare numeral; the unit % is implied.

# COMPOUND, %Inh [%]
data = [
    ("Cc1c(Cn2c(C)nn3c(=O)cc(N4CCOC(C)C4)nc23)cccc1C(F)(F)F (centres unmarked) [GSK2344444]", 17),
]

Look up %Inh for this compound: O=c1cc(N2CCOCC2)nc2n(Cc3cccc(F)c3)ccn12 [GSK2297430]
12

Look up %Inh for this compound: COCCNC(=O)c1ccc(-c2cc(C(=O)NC3CC3)cc(F)c2C)cc1 [GW868318]
0

Look up %Inh for this compound: Cl.Nc1ncnc2occ(-c3ccc(NC(=O)Nc4cc(C(F)(F)F)ccc4F)cc3)c12 [SB-707548]
0

Look up %Inh for this compound: Cc1nnc(-c2ccc(C)c(-c3ccc(C(=O)Nc4ccc(NS(C)(=O)=O)cc4)cc3)c2)o1 [GW702865]
15

---

Test system: TAK1
Construct: gene MAP3K7
DETAILS: concentration: 1 μM, replicates: in singlicate; n = 1
Attribute: %Inh
Give a bare numeral; the unit % is implied.

# MOLECULE, MEASUREMENT UNIT, %Inh
records = [
    ("CC(C)(C)n1cnc2c(N)ncnc21", "%", 22),
]

Look up %Inh for this molecule: CC(=O)Nc1ccc(COc2ccc(Nc3ccnc4cc(-c5ccccn5)ccc34)cc2)cc1.Cl
0

Look up %Inh for this molecule: COc1ccc(Nc2nccc(N3CCC(NC(=O)Nc4cc(C)ccc4C)C3)n2)cc1 (centres unmarked)
0

Look up %Inh for this molecule: Cc1nnc(-c2ccc(C)c(-c3ccc(C(=O)Nc4ccc(NS(C)(=O)=O)cc4)cc3)c2)o1
4

Look up %Inh for this molecule: COc1ccc(CNC(=O)NC2CCN(c3ccnc(Nc4ccc(OC)cc4)n3)C2)cc1 (centres unmarked)
0

---

System: MAPKAPK5
DETAILS: concentration: 1 μM, replicates: in singlicate; n = 1
Attribute: %Inh

Some solved cases for reference:
# COMPOUND, TARGET OR SYSTEM, RECORDED METRIC, VALUE REPORTED
data = [
    ("CN1c2ccc(NCc3ccc(F)cc3)cc2-c2c(cnn2C)S1(=O)=O", "MAPKAPK5", "%Inh", "0%"),
    ("Cc1cccc(-c2nc(Nc3ccc4ncsc4c3)c3ccccc3n2)n1 [GW867588]", "MAPKAPK5", "%Inh", "0%"),
]

Could you now consider this next compound?
Record lookup: for MAPKAPK5, what %Inh belongs to Cc1cccc(Cn2ccn3c(=O)cc(N4CCOCC4)nc23)c1 [GSK2297542] ?
0%

These entries and their values trace back to paper PMC5540273.
